So I've got a bunch of compounds here, and I need their GI50 values.
System: UACC-257
Experiment: NCI tumour cell line growth inhibition, 48 h
The source made the active and inactive calls. Rule as the data show it: active = GI50 up to about 1.1 µM and inactive = higher.

Worked cases, GI50 given:
structureNotation: CC(=O)O[C@H]1CC[C@@]2(C)C(=CC[C@@H]3[C@@H]2CC[C@](C)(c2nnc(C)o2)[C@H]3CC#N)C1
observedResult: > 100 µM (inactive)

structureNotation: O=S(=O)(c1ccccc1)[C@H]1[C@@H]2O[C@@H]2C[C@@H]1O
observedResult: > 100 µM (inactive)

Next:
Give the reported GI50 for this compound. O=C1Oc2ccccc2C(=O)/C1=C\Nc1nc(-c2ccccc2)cs1 10.5 µM (inactive)
